test.target: P2X purinoceptor 5 (Homo sapiens, UniProt Q93086)
Sequence (Q93086 whole entry): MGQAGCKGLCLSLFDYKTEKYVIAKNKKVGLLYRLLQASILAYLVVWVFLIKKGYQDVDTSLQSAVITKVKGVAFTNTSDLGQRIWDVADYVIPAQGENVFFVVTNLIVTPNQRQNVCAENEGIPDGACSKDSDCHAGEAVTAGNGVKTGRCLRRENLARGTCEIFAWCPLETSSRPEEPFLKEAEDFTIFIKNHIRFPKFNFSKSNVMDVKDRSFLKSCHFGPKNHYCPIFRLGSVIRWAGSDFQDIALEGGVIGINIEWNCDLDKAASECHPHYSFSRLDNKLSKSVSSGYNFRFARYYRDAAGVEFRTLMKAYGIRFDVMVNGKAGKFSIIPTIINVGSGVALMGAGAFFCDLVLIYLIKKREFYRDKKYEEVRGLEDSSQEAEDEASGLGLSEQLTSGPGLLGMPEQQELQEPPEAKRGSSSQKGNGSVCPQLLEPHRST
test.method.notes: Antagonist activity against human P2X5R stably transfected in human 1321N1 cells at 50 uM incubated for 30 mins by Fura-2 AM staining based calcium influx assay relative to control
Assay type: cell-based
Design: scale not given: the % may be the effect or the level left
Below, each entry is listed with its recorded Activity.
Only the number, expressed in %, is required.

Activity for `NS(=O)(=O)c1cccc(NC(=S)NC(=O)c2ccc3c(c2)OCO3)c1` is 23

Others:
Activity for `O=C(O)c1ccc2c(c1)OCO2` is 10

Activity for `CC(C)c1ccc(NC(=S)NC(=O)c2ccc3c(c2)OCO3)c(Br)c1` is 27

Activity for `O=C(NC(=S)Nc1ccc(Br)cc1)c1ccc2c(c1)OCO2` is 38

Activity for `COc1cccc(NC(=S)NC(=O)c2ccc3c(c2)OCO3)c1` is 25

Activity for `O=C(NC(=S)Nc1cc(Br)cc(C(F)(F)F)c1)c1ccc2c(c1)OCO2` is 17

====

test.target: P2X purinoceptor 5 (Homo sapiens)
test.method.notes: Antagonist activity against human P2X5R stably transfected in human 1321N1 cells at 50 uM incubated for 30 mins by Fura-2 AM staining based calcium influx assay relative to control
Assay type: cell-based
Set-up: scale not given: the % may be the effect or the level left
measurement.label: Activity
The reply should read as a number followed by its unit.

Before answering, review these 3 worked examples.
Activity for P2X purinoceptor 5 (Homo sapiens) with input `O=C(NC(=S)Nc1cccc2cccnc12)c1ccc2c(c1)OCO2` equals 29%

Activity for P2X purinoceptor 5 (Homo sapiens) with input `COc1ccc(NC(=S)NC(=O)c2ccc3c(c2)OCO3)cc1` equals 12%

Activity for P2X purinoceptor 5 (Homo sapiens) with input `COc1ccccc1NC(=S)NC(=O)c1ccc2c(c1)OCO2` equals 26%

Others:
Activity for P2X purinoceptor 5 (Homo sapiens) with input `NS(=O)(=O)c1ccc(CCNC(=S)NC(=O)c2ccc3c(c2)OCO3)cc1` equals 32%

Activity for P2X purinoceptor 5 (Homo sapiens) with input `Cc1cc(Br)ccc1NC(=S)NC(=O)c1ccc2c(c1)OCO2` equals 25%

====

Tested on: HEK293
test.method.notes: Cytotoxicity against HEK293 cells assessed as reduction in cell viability at 50 uM after 24 hrs by MTT assay relative to control
Assay type: toxicity, cell-based
test.settings: human, hek293, 24 h
Assign class by Activity: not lower than 7% means met; lower than 7% means not met.

Worked set:
Challenge: Confirm if Activity reported for the molecule `O=C(NC(=S)Nc1ccc(Br)cc1)c1ccc2c(c1)OCO2` is 7% or above.
Response given: not met

Challenge: Confirm if Activity reported for the molecule `NS(=O)(=O)c1ccc(CCNC(=S)NC(=O)c2ccc3c(c2)OCO3)cc1` is 7% or above.
Response given: not met

Challenge: Confirm if Activity reported for the molecule `COc1ccc(NC(=S)NC(=O)c2ccc3c(c2)OCO3)cc1` is 7% or above.
Response given: met

Challenge: Confirm if Activity reported for the molecule `Cc1ccc(C(=O)Nc2ccc(S(=O)(=O)O)c3cc(S(=O)(=O)O)cc(S(=O)(=O)O)c23)cc1NC(=O)c1cccc(NC(=O)Nc2cccc(C(=O)Nc3cc(C(=O)Nc4ccc(S(=O)(=O)O)c5cc(S(=O)(=O)O)cc(S(=O)(=O)O)c45)ccc3C)c2)c1` is 7% or above.
Response given: met

Others:
Challenge: Confirm if Activity reported for the molecule `COc1ccccc1NC(=S)NC(=O)c1ccc2c(c1)OCO2` is 7% or above.
Response given: not met
